Documented Bmax across a set of binders
Biological target: human Siglec-8 (full-length, on transfected CHO or 293 cells, or native on human eosinophils) (human, UniProt Q9NYZ4 17-499)
Sequence (Q9NYZ4 17-499): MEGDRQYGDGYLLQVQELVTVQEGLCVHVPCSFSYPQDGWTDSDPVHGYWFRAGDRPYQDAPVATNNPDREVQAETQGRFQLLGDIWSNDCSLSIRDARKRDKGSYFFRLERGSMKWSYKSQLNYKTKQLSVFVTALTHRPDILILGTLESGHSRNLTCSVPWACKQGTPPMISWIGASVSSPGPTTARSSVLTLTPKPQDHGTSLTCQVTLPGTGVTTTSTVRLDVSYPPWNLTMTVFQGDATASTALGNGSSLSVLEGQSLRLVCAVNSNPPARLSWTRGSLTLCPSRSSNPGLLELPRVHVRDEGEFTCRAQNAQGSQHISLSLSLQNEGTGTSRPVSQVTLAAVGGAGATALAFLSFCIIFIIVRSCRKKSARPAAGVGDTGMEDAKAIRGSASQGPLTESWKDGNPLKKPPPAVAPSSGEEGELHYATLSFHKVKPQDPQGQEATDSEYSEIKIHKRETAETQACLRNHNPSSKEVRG
Assay: flow cytometry on 293 cells transiently transfected with full-length human Siglec-8; A647 anti-human Fc-gamma secondary; median fluorescence, nonlinear fit; table under the graph
Protocol: The binding of the lmG2 and humanized versions (further including Siglec8 hzG2v14), formatted as monomeric VHH-hIgG1 fusions proteins using a non-dimerizing human IgG1 Fe variant region lacking a hinge Fe NNT, was assessed by flow cytometry using 293 cells that had been transiently transfected with full-length human Siglec-8 and detected with an anti-human AF647 secondary antibody. Binding specificity was assessed using untransfected 293 cells as a control. […]

[[record]]
binder = "Siglec8 hzG2v11, monomeric VHH-hIgG1 fusion (Fc NNT) (Fc fusion, Monomeric format; not shown: non-dimerizing human IgG1 Fc variant lacking a hinge (Fc NNT)) EVQLLESGGGEVQPGGSLRLSCAASGSISIFSMYVVAWYRQAPGKEREWVAFIQRGGTANYAESAKGRFTISRDNAKNTVYLQMSSLRAEDTAVYYCNYIQSDNEIGGPWGQGTLVTVKP"
result = "1.47e+06 Median (anti-human A647)"


What measured Bmax goes with Siglec8 hzG2v14, monomeric VHH-hIgG1 fusion (Fc NNT) (Fc fusion, Monomeric format; not shown: non-dimerizing human IgG1 Fc variant lacking a hinge (Fc NNT)) EVQLLESGGGEVQPGGSLRLSCAASGSISIFSMYVVAWYRQAPGKEREWVAFIQRGGTANYAESAKGRFTISRDNAKNTVYLQMSSLRAEDTAVYYCNYINTDNEIGGPWGQGTLVTVKP ?
1.35e+06 Median (anti-human A647)

What measured Bmax goes with Siglec8 hzG2v16, monomeric VHH-hIgG1 fusion (Fc NNT) (Fc fusion, Monomeric format; not shown: non-dimerizing human IgG1 Fc variant lacking a hinge (Fc NNT)) EVQLLESGGGEVQPGGSLRLSCAASGSISIFSLYVVAWYRQAPGKEREWVAFIQRGGTANYAESAKGRFTISRDNAKNTVYLQMSSLRAEDTAVYYCNYINSDNEIGGPWGQGTLVTVKP ?
1.49e+06 Median (anti-human A647)

What measured Bmax goes with llama anti-Siglec8-G2 VHH (lmG2), monomeric VHH-hIgG1 fusion (Fc NNT) (Fc fusion, Monomeric format; also called parental clone; not shown: non-dimerizing human IgG1 Fc variant lacking a hinge (Fc NNT)) QVTLKESGGGLVRTGGSLRLSCAASGSISIFSMYVVAWYRQAPGKQREWVAFIQRGGTANYADSAKGRFTISRDNAKNTVYLQMASLKPDDTAVYYCNYINSDNEIGGPWGQGTQVTVKP ?
1.28e+06 Median (anti-human A647)

What measured Bmax goes with Siglec8 hzG2v24, monomeric VHH-hIgG1 fusion (Fc NNT) (Fc fusion, Monomeric format; not shown: non-dimerizing human IgG1 Fc variant lacking a hinge (Fc NNT)) QVTLKESGGGLVRTGGSLRLSCAASGSISIFSMYVVAWYRQAPGKQREWVAFIQRGGTANYAESAKGRFTISRDNAKNTVYLQMSSLRAEDTAVYYCNYINSDNEIGGPWGQGTLVTVKP ?
1.27e+06 Median (anti-human A647)

What measured Bmax goes with Siglec8 hzG2v2.1, monomeric VHH-hIgG1 fusion (Fc NNT) (Fc fusion, Monomeric format; not shown: non-dimerizing human IgG1 Fc variant lacking a hinge (Fc NNT)) EVQLLESGGGEVQPGGSLRLSCAASGSISIFSMYVVAWYRQAPGKEREWVAFIQRGGTANYAESAKGRFTISRDNAKNTVYLQMSSLRAEDTAVYYCNYINSDNEIGGPWGQGTLVTVKP ?
3.81e+06 Median (anti-human A647)
